Assay: Miscibility of film-forming agent with physiological saline solution (uniformity of solution)
Type: physicochemical
Conditions: film-forming agent mixed with same weight of physiological saline solution 9 g/L, room temperature, shaken 20 seconds, macroscopically checked
Protocol: The film-forming agent must be soluble in water. Preferably, at least 5% by weight of the agent are soluble in water. More preferably, it is soluble in water in any ratio. […] Whether the film-forming agent is miscible with a physiological saline solution or not can be determined from its phase diagram. […] The uniformity of the resulting solution is determined. Accordingly, the miscibility of the film-forming agent with a physiological saline solution can be determined in a simple manner. […]
property.measured: Solubility (Uniformity of Reference Solutions)

compound: C=C(C)C(=O)OCC(O)CO (stereo not shown) [GLM, glycerol monomethacrylate]
result: dissolved

compound: C=C(C)C(=O)OCCO [HEMA, hydroxyethyl methacrylate]
result: dissolved

compound: C=C(C)C(=O)OCCCO [HPMA, hydroxypropyl methacrylate]
result: not dissolved

compound: C=C(C)C(=O)OCC(O)COCCOCC(O)COC(=O)C(=C)C (stereo not shown)
result: not dissolved

* * *

Assay: Measurement of pH of acid
Type: physicochemical
Details: one part by weight of acid in 99 parts by weight of distilled water
Assign pH of Acid to each entry below.
Please reply with the value in numeric form only.

[Q] Entry under review: O=C(O)CC(O)(CC(=O)O)C(=O)O [citric acid] . Reported pH of Acid?
[A] 1.6

[Q] Query O=S(=O)(O)O [sulfuric acid] next
[A] 1.1

[Q] Please do the same for O=[N+]([O-])O [nitric acid] as well.
[A] 0.9

[Q] What do we get for Cl [hydrochloric acid] ?
[A] 0.9

[Q] Same question, O=P(O)(O)O [phosphoric acid] this time
[A] 1.6

[Q] // query: C=C(C)C(=O)OCCOP(=O)(O)O [Example 2MEP, 2-methacryloyloxyethyl phosphate]
[A] 1.7

[Q] Here is the next compound: O=C(O)C(=O)O [oxalic acid]
[A] 1.3

[Q] Then what about the compound Cc1ccc(S(=O)(=O)O)cc1 [TSA, p-toluenesulfonic acid, reference compound] ?
[A] 1.4

[Q] Next record, please: C=C(C)C(=O)OCCCCCCCCCCOP(=O)(O)O [Example 10MDP, 10-methacryloyloxydecyl phosphate]
[A] 2.3

[Q] Another: C=C(C)C(=O)O [MRA, methacrylic acid, reference compound]
[A] 2.9
